In this section we review reported LC50 at 96 h values for a set of compounds.
- assay explanation: Example 10 fish toxicity, Japanese protocol
- Format: in vivo, carp
- test context: carp, in vivo; 96 hours; read-out: Medium Lethal Concentration

| compound | LC50 at 96 h / µg/mL |
| --- | --- |
| CCCCOCN(C(=O)CCl)c1c(CC)cccc1CC [Herbicide B, reference compound] | 0.76 |
| CCCCOCN(C(=O)CCl)c1c(C)cccc1C(C)(C)C [Herbicide A] | 1.4 |
